All figures here come from patent US20230303681A1.

ASSAY SYSTEM: T1, mouse TMEM106B (mouse, UniProt Q80X71 2-275)
T1 construct: on transiently transfected HEK293 cells, or natively expressed on mouse Neuro2a cells; also called moTMEM106B; murine TMEM106B
TEST METHOD NOTES: FACS Neuro2a;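 also: flow cytometry of cells stained with antibody or hybridoma supernatant (purified antibody at 10 µg/ml) for 1 h on ice, propidium iodide–positive dead cells gated out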
Listed next: entries and their corresponding MFI.
VALUE KIND: MFI

>  <BINDER>
anti-TMEM106B antibody TM-33 (antibody, V domains shown, mouse IgG from hybridoma) VH: EFQLQQSGPELVKPGASVKISCKASGYSFTDYNMNWVKQSNGKSLEWIGVINPNYGTTSYNQKFKGKATLTVDQSSSTAYMQLNSLTSEDSAVYYCASSYWGQGTLVTVSA VL: DIVMTQSQKFMSTTVGDRVSITCKASQNVGTAVAWYQQKPGQSPKLLIYSASNRYTGVPDRFTGSGSGTDFTLTISNMQSEDLADYFCQQYSSYPYTFGGGTKLEIK

>  <ENDPOINT VALUE>
233

$$$$
>  <BINDER>
anti-TMEM106B antibody TM-21 (antibody, V domains shown) VH: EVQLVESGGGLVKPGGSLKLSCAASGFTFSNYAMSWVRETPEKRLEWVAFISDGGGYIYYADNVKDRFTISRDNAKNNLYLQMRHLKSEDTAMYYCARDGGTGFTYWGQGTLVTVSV VL: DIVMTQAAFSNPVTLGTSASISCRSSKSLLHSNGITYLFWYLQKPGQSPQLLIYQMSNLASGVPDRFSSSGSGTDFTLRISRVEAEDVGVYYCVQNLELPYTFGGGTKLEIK

>  <ENDPOINT VALUE>
706

$$$$
>  <BINDER>
anti-TMEM106B antibody TM-42 (antibody, V domains shown) VH: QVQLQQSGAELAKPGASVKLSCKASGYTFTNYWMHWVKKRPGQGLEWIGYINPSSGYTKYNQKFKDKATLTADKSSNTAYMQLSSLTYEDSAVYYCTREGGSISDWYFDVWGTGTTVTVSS VL: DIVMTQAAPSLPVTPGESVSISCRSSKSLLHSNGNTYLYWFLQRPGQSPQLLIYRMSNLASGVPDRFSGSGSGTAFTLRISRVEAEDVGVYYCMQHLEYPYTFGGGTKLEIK

>  <ENDPOINT VALUE>
237

$$$$
